Target: Bcl-2 homologous antagonist/killer (Homo sapiens, UniProt Q16611)
Sequence (Q16611 whole entry): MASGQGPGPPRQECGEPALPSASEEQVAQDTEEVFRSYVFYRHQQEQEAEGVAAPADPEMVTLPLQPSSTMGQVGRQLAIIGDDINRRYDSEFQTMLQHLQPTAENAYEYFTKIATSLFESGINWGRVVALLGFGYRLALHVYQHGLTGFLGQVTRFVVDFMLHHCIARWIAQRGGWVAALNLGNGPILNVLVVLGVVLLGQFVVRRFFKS
Test: Binding affinity to Bak/Mcl-1 (unknown origin) protein protein interaction by fluorescence polarization assay
Property Name: Ki (nM)
Field format: number, assumed nM, no unit text.

QUERY: What measured Ki is associated with CC(C)Oc1cc(C(=O)Nc2ccc(C(=O)Nc3ccc(C(=O)O)cc3OC(C)C)nc2OC(C)C)ccc1N on Bcl-2 homologous antagonist/killer (Homo sapiens, UniProt Q16611)?
RESULT: 1790
